Target: SHP2 (Homo sapiens, UniProt Q06124)
Sequence (Q06124 1-593): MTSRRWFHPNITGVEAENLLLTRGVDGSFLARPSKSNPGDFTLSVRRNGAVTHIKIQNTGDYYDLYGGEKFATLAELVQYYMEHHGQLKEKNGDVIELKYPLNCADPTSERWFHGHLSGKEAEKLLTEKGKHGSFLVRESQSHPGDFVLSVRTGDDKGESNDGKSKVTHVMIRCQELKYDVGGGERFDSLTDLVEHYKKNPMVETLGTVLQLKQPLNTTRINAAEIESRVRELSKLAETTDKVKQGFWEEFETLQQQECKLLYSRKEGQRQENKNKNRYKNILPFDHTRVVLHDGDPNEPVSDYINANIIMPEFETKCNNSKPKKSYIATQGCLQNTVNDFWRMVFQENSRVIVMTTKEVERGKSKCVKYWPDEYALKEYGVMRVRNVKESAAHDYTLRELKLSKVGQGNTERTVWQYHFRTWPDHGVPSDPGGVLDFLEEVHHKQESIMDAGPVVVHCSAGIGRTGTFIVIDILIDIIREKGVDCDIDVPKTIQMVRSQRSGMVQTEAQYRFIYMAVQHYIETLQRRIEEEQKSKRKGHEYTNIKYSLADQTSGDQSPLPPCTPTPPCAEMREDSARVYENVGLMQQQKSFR
Assay: SHP2 degradation by Western blot in KYSE520 cells
Details: 1 µM
observation_type: % of SHP2 protein degradation in KYSE520 cell line (%)

[I] Cc1ncsc1-c1ccc([C@@H](C)NC(=O)[C@H]2C[C@H](O)CN2C(=O)[C@H](NC(=O)CCCNC(=O)CC(=O)Nc2cccc(Sc3ncc(N4CCC(C)(N)CC4)nc3N)c2Cl)C(C)(C)C)cc1 [Compound 8]
[II] Cc1ncsc1-c1ccc([C@@H](C)NC(=O)[C@H]2C[C@H](O)CN2C(=O)[C@H](NC(=O)CCCCCCNC(=O)CC(=O)Nc2cccc(Sc3ncc(N4CCC(C)(N)CC4)nc3N)c2Cl)C(C)(C)C)cc1 [Compound 11]
Problem: Sort I and II by % of SHP2 protein degradation in KYSE520 cell line descending and give the first. Pick one; state its label.
Result: I

Numbers sourced from patent US20230218765A1.
